Target: Glutamate NMDA receptor; GRIN1/GRIN2B (Homo sapiens, UniProt Q05586+Q13224)
Experiment: Inhibition of recombinant human GluN1/GluN2B receptor expressed in HEK293 cells assessed as reduction in glutamate induced current at 1 uM at -60 mV holding potential by electrophysiology assay relative to control
Format: cell-based
I'd be grateful if you could share measured inhibition for these entries.
Please give a number only; it is taken to be in %.

Look up inhibition: COc1cccc(Oc2ccc3nc4c(c(N)c3c2)CCC4)c1
16

Moving on to CC(C)(C)c1ccc(Oc2ccc3nc4c(c(N)c3c2)CCCCC4)cc1
10.1

Moving on to COc1cccc(Oc2ccc3nc4c(c(N)c3c2)CCCC4)c1
14.7

Moving on to COc1ccc(Oc2ccc3nc4c(c(N)c3c2)CCCC4)cc1
33.2

Moving on to Cc1cc(C)cc(Oc2ccc3nc4c(c(N)c3c2)CCC4)c1
9.6

Moving on to COc1ccc(Oc2ccc3nc4c(c(N)c3c2)CCC4)cc1
22.7

Moving on to CC(C)(C)c1ccc(Oc2ccc3nc4c(c(N)c3c2)CCC4)cc1
6.7

Moving on to COc1cccc(Oc2ccc3nc4c(c(N)c3c2)CCCCC4)c1
7.1

Moving on to Cc1cc(C)cc(Oc2ccc3nc4c(c(N)c3c2)CCCC4)c1
8.2

Moving on to COc1ccccc1Oc1ccc2nc3c(c(N)c2c1)CCCCC3
57.6

Moving on to Cc1ccccc1Oc1ccc2nc3c(c(N)c2c1)CCCCC3
8.8
